These entries and their values trace back to ChEMBL document CHEMBL1132613.

# study_target: 5-hydroxytryptamine receptor 2C (Homo sapiens)
# Sequence (P28335 whole entry): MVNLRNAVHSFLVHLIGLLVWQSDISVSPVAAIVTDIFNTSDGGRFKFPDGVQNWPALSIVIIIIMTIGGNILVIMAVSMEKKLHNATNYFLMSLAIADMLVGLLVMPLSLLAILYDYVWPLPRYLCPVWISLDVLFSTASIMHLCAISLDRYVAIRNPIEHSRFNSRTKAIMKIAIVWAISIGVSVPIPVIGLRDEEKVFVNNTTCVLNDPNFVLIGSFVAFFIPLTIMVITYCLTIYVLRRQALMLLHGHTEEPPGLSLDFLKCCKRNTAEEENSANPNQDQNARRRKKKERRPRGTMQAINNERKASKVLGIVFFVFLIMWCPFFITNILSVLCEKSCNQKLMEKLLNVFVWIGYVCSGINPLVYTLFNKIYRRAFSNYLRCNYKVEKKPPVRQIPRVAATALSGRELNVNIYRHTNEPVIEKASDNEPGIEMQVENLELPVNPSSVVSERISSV
Each entry below carries its recorded Ki.
observation_type: Ki (µM)

• CN(C)CCc1c[nH]c2ccsc12 = 0.064
• CN(C)CCc1c[nH]c2sccc12 = 0.102
